FYI, the data here is from paper PMC12316891.

- target-or-system: BRD4 (BD1) (Homo sapiens)
- Construct: A pET28 plasmid containing residues 44–168 of BRD4 (BD1), a 6xHis tag, a TEV protease cleavage site; 6xHis (N, cleaved yes); made in house; host or cells: E. coli Rosetta (D3)
- experimental-details: Differential scanning fluorimetry (DSF) single-dose thermal shift screening
- Assay type: binding
- test-settings: DSF, compound 10 µM, BRD4 (BD1) 2 µM, n = 3, decimal comma; read-out: ΔTm ºC at [10 µM]
Answer condition not met if ΔTm at 10 µM is under 1 °C, and condition met if it is 1 °C or more.

(Q) Is ΔTm at 10 µM at least 1 °C? Consider CCCc1c(C(=O)N2CCC(Cc3cn(-c4cccc(F)c4C)nn3)C2)[nH]c(C)c1C(C)=O (centres unmarked) [Compound 33]
(A) condition not met

(Q) For CCCc1c(C(=O)N2CCC(Cc3cn(C4CC4)nn3)CC2)[nH]c(C)c1C(C)=O [Compound 54] then?
(A) condition met

(Q) For Cn1cc(C(=O)Nc2ccc(OCc3cnccn3)cc2)c2ccccc2c1=O [Compound 42] then?
(A) condition met

(Q) For CN(C)S(=O)(=O)c1ccc(-n2nc(-c3cccnc3)nc2-c2cn(C)c(=O)c3ccccc23)cc1 [Compound 51] then?
(A) condition met

(Q) For Cc1nc(=O)c(CCC(=O)N2CC3(CCCC3)c3ccccc32)c[nH]1 [Compound 85] then?
(A) condition met

(Q) For CCn1nnc2cc(C(=O)N3CCCN(C(=O)c4ccccc4Cl)C(c4ccccc4)C3)ccc21 (centres unmarked) [Compound 34] then?
(A) condition not met

(Q) For COC(C)CC(=O)N1CCC(C2(O)CCN(C(=O)c3sc4nnc(C)c(C)c4c3N)C2)CC1 (centres unmarked) [Compound 39] then?
(A) condition met

(Q) For CC(=O)c1ccc(N2CCN(C(=O)Nc3nnc(C)s3)CC2)c(F)c1 [Compound 69] then?
(A) condition not met

====

I'd appreciate it if you could supply RUs at [10 µM] values for the items below.
- target-or-system: His6-BRD4 (BD1) (Homo sapiens)
- Construct: A pET28 plasmid containing residues 44–168 of BRD4 (BD1), a 6xHis tag, a TEV protease cleavage site; made in house; host or cells: E. coli Rosetta (D3)
- experimental-details: Surface plasmon resonance (SPR) single-dose screening
- Assay type: binding
- test-settings: SPR, compound 10 µM, 1% DMSO, n = 2, decimal comma

(Q) Test system His6-BRD4 (BD1) (Homo sapiens); read-out RUs at [10 µM]; what value for CC(=O)c1ccc(N2CCN(C(=O)Nc3nnc(C)s3)CC2)c(F)c1 [Compound 69] ?
(A) 23,49 ± 1,0 RUs

(Q) For CN(C)C(=O)Sc1cc(NC(=O)c2cn(C)c(=O)c3ccccc23)ccc1Cl [Compound 53] then?
(A) 28,62 ± 5,34 RUs

(Q) For COc1ccc(-n2c(C)nnc2SCC(=O)N2CC3(CCN(C)CC3)C2)cc1 [Compound 45] then?
(A) 9,8 ± 3,73 RUs

(Q) For COc1cccc(-n2c(C)nnc2SCC(=O)NC2CN(C(=O)C3CCOCC3)CC23CC3)c1 (centres unmarked) [Compound 32] then?
(A) 3,3 ± 1,9 RUs

(Q) For CCCc1c(C(=O)N2CCCC2Cn2cc(-c3cc(C)nc(C)c3)nn2)[nH]c(C)c1C(C)=O (centres unmarked) [Compound 61] then?
(A) 15,14 ± 5,89 RUs

(Q) For COc1cccc(-n2c(C)nnc2SCC(=O)N2CC3CCC2CN3C(=O)c2ccns2)c1 (centres unmarked) [Compound 35] then?
(A) 13,78 ± 5,32 RUs

(Q) For Cc1cn2cc(C(=O)NC(C)CC(C)NC(=O)c3ccsn3)sc2n1 (centres unmarked) [Compound 91] then?
(A) 8,08 ± 2,94 RUs

(Q) For Cc1ccc(CNC(=O)c2ccc3nnc(C)c(C)c3c2)c(OC2CCOC2)c1 (centres unmarked) [Compound 20] then?
(A) 41,88 ± 12,55 RUs

(Q) For COc1ccc(CNc2ccc3ccn(C)c(=O)c3c2)cc1OCC(C)C [Compound 38] then?
(A) 30,29 ± 13,03 RUs

(Q) For O=C(Nc1cccc(C(=O)N2CCC(Cn3cc(C4(O)CCOCC4)nn3)CC2)c1)c1ccco1 [Compound 84] then?
(A) 17,5 ± 1,9 RUs

(Q) For CCCc1c(C(=O)N2CCC(Cc3cn(-c4cccc(F)c4C)nn3)C2)[nH]c(C)c1C(C)=O (centres unmarked) [Compound 33] then?
(A) 8,85 ± 1,09 RUs

(Q) For COc1ccc(-c2cc(NC(=O)C(=O)NC(C)c3nnc4ncccn34)ccc2OC)cc1 (centres unmarked) [Compound 47] then?
(A) 25,41 ± 18,52 RUs

(Q) For Cc1nnc(NC(=O)C2CCCN(C(=O)c3ccc(Br)c(F)c3)C2)s1 (centres unmarked) [Compound 79] then?
(A) 33,58 ± 5,55 RUs

(Q) For CCS(=O)(=O)Nc1ccc(Oc2ccc(F)cc2F)c(-c2cn(C)c(=O)c3[nH]ccc23)c1 [Compound 1, reference compound] then?
(A) 116,86 ± 26,64 RUs

(Q) For COc1ccc(-n2c(C)nnc2SCC(=O)NC2CCN(C(=O)c3cc(Cl)sc3Cl)CC2C)cc1 (centres unmarked) [Compound 52] then?
(A) 31,14 ± 2,8 RUs

(Q) For COc1ccc(-n2c(C)nnc2SCC(=O)NCc2ccc(F)c(C)c2)cc1 [Compound 19] then?
(A) 33,98 ± 20,29 RUs

(Q) For CC(NC(=O)CC1(C)CCCO1)C1(O)CN(C(=O)c2nsnc2O)C1 (centres unmarked) [Compound 89] then?
(A) -1,39 ± 0,54 RUs

====

- target-or-system: BRD4 (BD1) (Homo sapiens, UniProt O60885)
- Construct: A pET28 plasmid containing residues 44–168 of BRD4 (BD1), a 6xHis tag, a TEV protease cleavage site; 6xHis (N, cleaved yes); made in house; host or cells: E. coli Rosetta (D3)
- experimental-details: Differential scanning fluorimetry (DSF) single-dose thermal shift screening
- Type: binding
- test-settings: DSF, compound 10 µM, BRD4 (BD1) 2 µM, n = 3, decimal comma; read-out: ΔTm ºC at [10 µM]
Each record's ΔTm at 10 µM is compared with group A = under 0.5 °C, group B = from 0.5 °C up to 2 °C, group C = 2 °C and over to give its class.

(Q) The entry to classify is Cc1cc(C)n2nc(NC(=O)N3CCc4cc(Cl)cc(Cl)c4C3)nc2n1 ; which class holds it?
(A) group A

(Q) For COC1CC(CCC(=O)NC2CC3(CCN(C(=O)c4occc4Br)C3)Oc3ccccc32)C1 (centres unmarked) then?
(A) group A

(Q) For CN(Cc1cccc(OC(F)F)c1)C(=O)C(=O)NC1CCN(C(=O)c2ccco2)c2ccccc21 (centres unmarked) then?
(A) group B

(Q) For Cc1nnc(NC(=O)CNC(c2ccc(Cl)cc2)c2ccccc2C(C)C)s1 (centres unmarked) then?
(A) group A

(Q) For COc1ccc(-n2c(C)nnc2SCC(=O)NCc2ccc(F)c(C)c2)cc1 then?
(A) group B

(Q) For CCCc1c(C(=O)N2CCOC(CN(C)C(=O)c3cccn3C)C2)[nH]c(C)c1C(C)=O (centres unmarked) then?
(A) group C

(Q) For Cc1nnnn1-c1cc(F)cc(C(=O)N2CCN(C(=O)C(=O)NCC3CC3)C(C(C)C)C2)c1 (centres unmarked) then?
(A) group B

(Q) For Cc1nnc(NC(=O)CCC(=O)N2Cc3ccccc3OC3(CCOC3)C2)s1 (centres unmarked) then?
(A) group C

(Q) For Cc1cc(C)n2nc(CC(=O)NCC(C)(C)Cn3cc(-c4sccc4C)nn3)nc2n1 then?
(A) group A

(Q) For CC(C)=CC(=O)NCCC1CCN(C(=O)c2cn(C)c(=O)c3ccccc23)C1 (centres unmarked) then?
(A) group C

(Q) For Cc1ccc(-n2c(C)nnc2SCC(=O)N2CCOCCC23COC3)cc1 then?
(A) group B

(Q) For Cc1cc(C)n2c(CNc3ccc(C)c(NC(=O)CN4CCCCC4)c3)cnc2n1 then?
(A) group B

(Q) For COc1ccc(-n2c(C)nnc2SCC(=O)NCc2cc(C)nc(C)c2)cc1 then?
(A) group B

(Q) For CNC(=O)c1ccc(-n2nc(Cn3cccn3)nc2-c2cn(C)c(=O)c3ccccc23)cc1 then?
(A) group C

====

- target-or-system: His6-BRD4 (BD1) (Homo sapiens, UniProt O60885)
- Construct: A pET28 plasmid containing residues 44–168 of BRD4 (BD1), a 6xHis tag, a TEV protease cleavage site; made in house; host or cells: E. coli Rosetta (D3)
- experimental-details: Surface plasmon resonance (SPR) single-dose screening
- Format: binding
- test-settings: SPR, compound 10 µM, 1% DMSO, n = 2, decimal comma
I'd appreciate it if you could supply RUs at [10 µM] values for the items below.

(Q) Give its RUs at [10 µM] value. Item: CN(Cc1cccc(OC(F)F)c1)C(=O)C(=O)NC1CCN(C(=O)c2ccco2)c2ccccc21 (stereo not shown) [Compound 86]
(A) 56,94 ± 25,46 RUs

(Q) For Cc1cc(C)n2nc(CC(=O)NCC(C)(C)Cn3cc(-c4sccc4C)nn3)nc2n1 [Compound 64] then?
(A) 25,91 ± 0,65 RUs

(Q) For CCCc1c(C(=O)N2CCC(Cc3cn(C4CC4)nn3)CC2)[nH]c(C)c1C(C)=O [Compound 54] then?
(A) 17,03 ± 5,1 RUs

(Q) For COC1(CNC(=O)C2=C(Cl)CCCC2)CCN(C(=O)c2sc3nnc(C)c(C)c3c2N)CC1 [Compound 57] then?
(A) 26,22 ± 6,56 RUs
